Values compiled from patent US10562912B2.

# IC50 per entry
# Tested on: LNCaP
# assay: Cell growth inhibition assay, prostate cancer cell line LNCaP (medium with 10 ng/mL IL-6)
# Format: cell-based
# details: Homo sapiens, medium supplemented with 10 ng/mL of IL-6, 10,000 cells/well
A number alone suffices; assume µM.

Sample records with IC50:
In [3]: df
Out[3]:
                                        mol  tested_system  measured_property  unit_of_measurement  assay_value
0  Cn1c(C(=O)Nc2cccc(-c3ccc(F)cc3F)c2)cc2ccc([N+](=O)[O-])cc21          LNCaP               IC50                   µM          3.7
1  COCCS(=O)(=O)Nc1cc2cc(C(=O)Nc3cc(Cl)cc(C(C)(C)c4ccc(Cl)cc4)c3)sc2cc1Cl          LNCaP               IC50                   µM        0.072
2  CC(C)(Oc1cccc(C(C)(C)c2cc(Br)cc(NC(=O)c3cc4cc(NS(C)(=O)=O)ccc4s3)c2)c1)C(N)=O          LNCaP               IC50                   µM          4.4

## Task Param readout= IC50; system= LNCaP; entry= `CS(=O)(=O)Nc1ccc2cc(C(=O)Nc3cccc(C(F)(F)c4ccccn4)c3)[nH]c2c1` ; returns value.
## Result 9.1

## Task Try the compound `CS(=O)(=O)Nc1ccc2sc(C(=O)Nc3cc(Cl)cc(Oc4ccc(F)c(Cl)c4)c3)cc2c1`
## Result 0.24

## Task Try the compound `CC(C)(c1cc(Br)cc(NC(=O)c2cc3cc(NS(C)(=O)=O)ccc3s2)c1)c1cc(CN2CCN(C3COC3)CC2)cc(OC(F)(F)C(F)F)c1`
## Result 0.36

----------
# tested.system: STAT3 (Homo sapiens, UniProt P40763)
# Construct: plasmid pSTAT3-TA-luc), which contains a stably operating STAT3 promoter; endogenous in cells
# Sequence (P40763 whole entry): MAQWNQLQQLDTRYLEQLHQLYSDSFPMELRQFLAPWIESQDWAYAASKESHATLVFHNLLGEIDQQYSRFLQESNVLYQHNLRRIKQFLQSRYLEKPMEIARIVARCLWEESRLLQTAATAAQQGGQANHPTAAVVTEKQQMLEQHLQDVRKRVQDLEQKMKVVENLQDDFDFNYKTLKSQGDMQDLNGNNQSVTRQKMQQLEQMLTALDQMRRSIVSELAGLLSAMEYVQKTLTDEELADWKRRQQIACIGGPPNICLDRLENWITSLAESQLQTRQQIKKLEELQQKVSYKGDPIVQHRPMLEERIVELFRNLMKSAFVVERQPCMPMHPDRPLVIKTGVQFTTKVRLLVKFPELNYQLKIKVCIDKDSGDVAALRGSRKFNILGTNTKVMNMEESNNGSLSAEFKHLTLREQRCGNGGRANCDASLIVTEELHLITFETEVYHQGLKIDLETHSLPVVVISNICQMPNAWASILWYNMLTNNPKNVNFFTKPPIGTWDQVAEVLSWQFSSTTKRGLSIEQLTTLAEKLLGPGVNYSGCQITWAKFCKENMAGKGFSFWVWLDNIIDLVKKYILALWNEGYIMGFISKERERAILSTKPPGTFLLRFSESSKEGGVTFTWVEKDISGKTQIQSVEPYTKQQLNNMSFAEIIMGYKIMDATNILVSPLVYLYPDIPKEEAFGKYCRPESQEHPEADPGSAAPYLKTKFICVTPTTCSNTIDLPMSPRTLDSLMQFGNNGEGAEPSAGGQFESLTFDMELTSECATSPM
# assay: STAT3 reporter gene assay (luciferase), LNCaP stable cell line (pSTAT3-TA-luc), IL-6 stimulation
# Type: cell-based
measured.property: IC50 (µM)
A number alone suffices; assume µM.

Sample records with IC50:
>>> print(df.to_string())
                                   compound  assay_value
0  COc1cc2sc(C(=O)Nc3cc(Cl)cc(Oc4ccc(Cl)cc4)c3)cc2cc1NS(C)(=O)=O [Example 498]         0.06
1  CS(=O)(=O)Nc1ccc2sc(C(=O)Nc3cc(OC(F)F)cc(-c4ccc(F)cc4F)c3)cc2c1 [Example 370]         0.21

Now turn to the next compound.
## Task Any idea what IC50 was measured for CC(C)Oc1cc(OC(F)(F)F)cc(C(C)(C)c2cc(Cl)cc(NC(=O)c3cc4cc(N5CCCS5(=O)=O)ccc4s3)c2)c1 [Example 212] ?
## Result 0.01

----------
# log10 of IC50 per entry
# tested.system: STAT3 (Homo sapiens, UniProt P40763)
# Construct: plasmid pSTAT3-TA-luc), which contains a stably operating STAT3 promoter; endogenous in cells
# assay: STAT3 reporter gene assay (luciferase), LNCaP stable cell line (pSTAT3-TA-luc), IL-6 stimulation
# Assay type: cell-based
Recorded IC50 (log10, µM)

Sample records with log10 of IC50:
>>> print(df.to_string())
                                   compound  assay_value
0  CC(C)Oc1cc(OC(F)(F)F)cc(C(C)(C)c2cc(Cl)cc(NC(=O)c3cc4cc(NS(=O)(=O)CC5CCOCC5)ccc4s3)c2)c1 [Example 198]        -1.52
1  COc1cc(F)cc(Oc2cc(Cl)cc(NC(=O)c3cc4cc(NS(C)(=O)=O)c(Cl)cc4s3)c2)c1 [Example 484]        -1.68

## Task Any idea what log10 of IC50 was measured for CCOc1cc(OC(F)(F)F)cc(C(C)(C)c2cc(Cl)cc(NC(=O)c3cc4cc(NS(C)(=O)=O)ccc4s3)c2)c1 [Example 58] ?
## Result -2.15

## Task Try the compound CN(c1ccc2cc(C(=O)Nc3cccc(-c4ccccc4C(F)(F)F)c3)n(C)c2c1)S(C)(=O)=O [Example 343]
## Result 0.26

## Task Try the compound CS(=O)(=O)Nc1cc2cc(C(=O)Nc3cc(Cl)cc(Oc4ccc(Cl)c(F)c4)c3)sc2cc1Cl [Example 477]
## Result -1.60

## Task Try the compound CC(C)Oc1cc(CN2CCN(C(=O)OC(C)(C)C)CC2)cc(C(C)(C)c2cc(Br)cc(NC(=O)c3cc4cc(NS(C)(=O)=O)ccc4s3)c2)c1 [Example 123]
## Result -1.34

## Task Try the compound CC(C)Oc1cc(OC(F)(F)F)cc(C(C)(C)c2cc(Br)cc(NC(=O)c3cc4cc(NS(C)(=O)=O)ccc4s3)c2)c1 [Example 49]
## Result -2.15

## Task Try the compound CS(=O)(=O)Nc1ccc2sc(C(=O)Nc3cc(Cl)cc(Oc4cc(F)cc(Cl)c4)c3)cc2c1 [Example 469]
## Result -0.44

## Task Try the compound Cc1cc(OC(C)C)cc(C(C)(C)c2cc(Cl)cc(NC(=O)c3cc4c(Br)c(NS(C)(=O)=O)ccc4s3)c2)c1 [Example 488]
## Result -0.46

## Task Try the compound CS(=O)(=O)Nc1ccc2sc(C(=O)Nc3cc(Cl)nc(Oc4ccc(C(F)(F)F)nc4)c3)cc2c1 [Example 493]
## Result -0.85

## Task Try the compound CS(=O)(=O)Nc1cc2cc(C(=O)Nc3cc(Cl)cc(Oc4ccc(Cl)cc4)c3)sc2cc1Br [Example 453]
## Result -1.66

----------
# IC50 per entry
# System: DU-145
# assay: Cell growth inhibition assay, prostate cancer cell line DU-145
# Type: cell-based
# details: Homo sapiens, DU-145 prostate cancer cell line
A number alone suffices; assume µM.

Sample records with IC50:
>>> df
                                        mol  measured_property  unit_of_measurement  assay_value
0  CN(c1ccc(Cl)cc1)c1cc(Cl)cc(NC(=O)c2cc3cc(NS(C)(=O)=O)ccc3s2)c1               IC50                   µM        0.012
1  CC(C)Oc1cc(OC(F)(F)F)cc(C(C)(C)c2cc(Cl)cc(NC(=O)c3cc4cnc(NS(C)(=O)=O)cc4[nH]3)c2)c1               IC50                   µM         0.44
2  CS(=O)(=O)Nc1ccc2sc(C(=O)Nc3cc(Cl)nc(Oc4ccc(Cl)cc4)c3)cc2c1               IC50                   µM        0.031
3  CC(C)(c1cc(Cl)cc(NC(=O)c2cc3cc(NS(C)(=O)=O)ccc3s2)c1)c1cc(OC2CC2)cc(OC(F)(F)F)c1               IC50                   µM        0.008
4  CC(C)(c1ccc(F)cc1)c1cc(Br)cc(NC(=O)c2cc3cc(NS(C)(=O)=O)ccc3s2)c1               IC50                   µM        0.044
5  CC(C)Oc1cc(OC(F)(F)F)cc(C(C)(C)c2cc(Cl)cc(NC(=O)c3cc4cc(NS(=O)(=O)c5cnn(C)c5)ccc4s3)c2)c1               IC50                   µM        0.018

Now turn to the next compound.
## Task Any idea what IC50 was measured for `CC(C)(C)OC(=O)N1CCC(Oc2cc(OC(F)(F)F)cc(C(C)(C)c3cc(Cl)cc(NC(=O)c4cc5cc(NS(C)(=O)=O)ccc5s4)c3)c2)CC1` ?
## Result 0.011

----------
# tested.system: STAT3 (Homo sapiens)
# Construct: plasmid pSTAT3-TA-luc), which contains a stably operating STAT3 promoter; endogenous in cells
# assay: STAT3 reporter gene assay (luciferase), LNCaP stable cell line (pSTAT3-TA-luc), IL-6 stimulation
# Format: cell-based
# Protocol: 1-1) Experiment on the Inhibition of STAT3 Activity […] The luciferase assay and the cell viability assay were performed respectively with one of the two plates. […] After shaking the plate for 30 minutes, luciferase activities of each well were measured in a PHERAstar™ microplate reader (BMG LABTECH) using a luciferase assay system (Cat No. E1501, Promega). […]
measured.property: IC50

Sample records with IC50:
In [3]: df
Out[3]:
                                        mol  measured_property  assay_value
0  CCC(CC)(c1cc(NC(=O)c2cc3ccc(NS(C)(=O)=O)cc3[nH]2)cc(OC)c1)c1cc(OC)cc(OC(F)(F)F)c1               IC50      0.16 µM
1  CS(=O)(=O)Nc1ccc2sc(C(=O)Nc3cc(Cl)cc(Oc4cc(F)ccc4F)c3)cc2c1               IC50      0.23 µM
2  COc1cccc(C(C)(C)c2cccc(NC(=O)c3cc4cc(NS(C)(=O)=O)ccc4s3)c2)c1               IC50       0.1 µM
3  Cn1c(C(=O)Nc2cccc(-c3ccccc3C(F)(F)F)c2)cc2ccc(NS(C)(=O)=O)cc21               IC50       4.7 µM
4  O=C(O)COc1ccc2cc(C(=O)Nc3cccc(-c4ccc(F)cc4F)c3)[nH]c2c1               IC50      > 10 µM

## Task Any idea what IC50 was measured for `CC(C)(c1cc(Cl)cc(NC(=O)c2cc3cc(NS(C)(=O)=O)ccc3s2)c1)c1cc(OC(F)(F)F)cc(OC(F)(F)C(F)F)c1` ?
## Result 0.016 µM

## Task Try the compound `CS(=O)(=O)Nc1ccc2c(C(=O)Nc3cccc(-c4ccccc4C(F)(F)F)c3)c[nH]c2c1`
## Result 6.8 µM

## Task Try the compound `COC(=O)c1ccc(C(F)(F)F)c(-c2cccc(NC(=O)c3cc4ccc(NS(C)(=O)=O)cc4[nH]3)c2)c1`
## Result > 10 µM

## Task Try the compound `O=C(Nc1cccc(-c2ccccc2C(F)(F)F)c1)c1cc2ccc(NS(=O)(=O)CC(F)(F)F)cc2[nH]1`
## Result 1.9 µM

## Task Try the compound `CS(=O)(=O)Nc1ccc2cc(C(=O)Nc3cc(-c4ccc(F)nc4)cc(-c4ccc(F)cc4F)c3)[nH]c2c1`
## Result 0.48 µM

## Task Try the compound `CC(C)(c1ccccc1)c1cc(Cl)cc(NC(=O)c2cc3cc(NS(C)(=O)=O)ccc3s2)c1`
## Result 0.065 µM

## Task Try the compound `CS(=O)(=O)Nc1ccc2sc(C(=O)Nc3cc(-c4ccc(F)cc4F)cc(Cl)n3)cc2c1`
## Result 0.27 µM
